Hey, just so you know, these numbers are from ChEMBL document CHEMBL4304784.

Molecular target: Glutamate NMDA receptor; GRIN1/GRIN2B (Homo sapiens, UniProt Q05586+Q13224)
Sequence (Q13224 whole entry, other chains not shown): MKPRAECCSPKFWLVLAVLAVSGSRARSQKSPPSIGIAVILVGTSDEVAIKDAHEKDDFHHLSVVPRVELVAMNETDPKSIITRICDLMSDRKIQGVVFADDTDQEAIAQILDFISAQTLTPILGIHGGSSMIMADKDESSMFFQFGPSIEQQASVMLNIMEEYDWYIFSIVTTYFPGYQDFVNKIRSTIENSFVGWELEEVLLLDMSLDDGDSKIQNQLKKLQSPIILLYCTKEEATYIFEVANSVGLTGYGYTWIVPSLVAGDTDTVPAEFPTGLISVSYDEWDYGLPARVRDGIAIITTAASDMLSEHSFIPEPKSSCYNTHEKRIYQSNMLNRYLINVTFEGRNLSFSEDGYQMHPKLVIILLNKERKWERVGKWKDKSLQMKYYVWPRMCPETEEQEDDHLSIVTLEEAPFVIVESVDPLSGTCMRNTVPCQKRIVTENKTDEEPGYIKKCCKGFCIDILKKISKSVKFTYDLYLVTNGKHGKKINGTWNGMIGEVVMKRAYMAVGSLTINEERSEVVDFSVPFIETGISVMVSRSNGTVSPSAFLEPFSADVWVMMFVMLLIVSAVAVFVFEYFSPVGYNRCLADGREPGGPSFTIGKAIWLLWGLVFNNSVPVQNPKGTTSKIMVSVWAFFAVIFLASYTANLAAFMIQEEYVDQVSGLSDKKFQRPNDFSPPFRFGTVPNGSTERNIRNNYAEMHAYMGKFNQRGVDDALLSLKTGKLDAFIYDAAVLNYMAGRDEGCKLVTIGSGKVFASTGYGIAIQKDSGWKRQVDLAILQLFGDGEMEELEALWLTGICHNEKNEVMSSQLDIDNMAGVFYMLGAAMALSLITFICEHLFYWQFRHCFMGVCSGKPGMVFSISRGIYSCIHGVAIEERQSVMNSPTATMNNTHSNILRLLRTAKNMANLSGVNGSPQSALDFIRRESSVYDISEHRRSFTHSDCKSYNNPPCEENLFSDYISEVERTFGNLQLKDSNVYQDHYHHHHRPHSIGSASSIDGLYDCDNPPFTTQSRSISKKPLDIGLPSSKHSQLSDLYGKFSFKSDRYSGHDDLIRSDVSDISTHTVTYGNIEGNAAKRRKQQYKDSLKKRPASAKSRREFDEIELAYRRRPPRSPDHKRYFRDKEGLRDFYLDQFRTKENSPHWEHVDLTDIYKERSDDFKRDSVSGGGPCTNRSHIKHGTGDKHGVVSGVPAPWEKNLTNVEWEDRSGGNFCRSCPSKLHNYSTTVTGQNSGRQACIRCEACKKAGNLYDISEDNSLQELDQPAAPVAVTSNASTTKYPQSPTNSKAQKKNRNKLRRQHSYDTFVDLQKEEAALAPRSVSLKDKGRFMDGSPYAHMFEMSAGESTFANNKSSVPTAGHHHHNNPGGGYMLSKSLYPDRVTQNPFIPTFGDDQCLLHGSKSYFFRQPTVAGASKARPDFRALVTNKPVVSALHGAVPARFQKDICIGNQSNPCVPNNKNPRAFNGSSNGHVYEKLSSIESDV
Assay: Displacement of [3H]ifenprodil from GluN1a/GluN2B (unknown origin) expressed in mouse L(tk-) cell membranes after 120 mins by solid scintillation counting method
Lab note: cut-off is 30 nM. Strictly less in Ki is criterion met. Exactly 30 nM or more is criterion not met.

Previously resolved entries follow.
- Molecular string: "O=C1CCc2ccccc2N1CCCCN1CCN(c2ccccn2)CC1"
  Classification: "criterion not met"
- Molecular string: "Cc1ccc(CN(C)CCCCN2C(=O)CCc3ccccc32)c(C)c1"
  Classification: "criterion met"

Q. Input Cc1ccc(CN(C)CCCCn2nc(-c3ccccc3)oc2=O)c(C)c1 ; condition: Ki strictly below 30 nM. Does it hold?
A. criterion met

Q. Does COc1cc2c(cc1OC)CN(CCCCN1C(=O)CCc3ccccc31)CC2 have Ki strictly under 30 nM?
A. criterion met

Q. Decide: Ki of O=C1CCc2ccccc2N1CCCCN1CCc2ccc([N+](=O)[O-])cc2C1 strictly below 30 nM?
A. criterion not met

Q. # check: Ki < 30 nM for O=C1CCc2ccccc2N1CCCCN1CCN(C2CCCCC2)CC1
A. criterion met

====

Assay: Cytotoxicity against human HeLa cells assessed as cell viability at 100 uM incubated for 48 hrs by MTT assay relative to control
Type: cell-based
Conditions: read-out: Activity
Listed here: items and their measured viability at 48 h, 100 µM.
Response body: numeric value in %, unit text excluded.

Q. Any idea what its viability at 48 h, 100 µM is? The molecule is COc1cc2c(cc1OC)CN(CCCCn1nc(-c3ccccc3)oc1=O)CC2
A. 39

Q. Any idea what viability at 48 h, 100 µM was measured for O=C1CCc2ccccc2N1CCCCN1CCC2(CC1)OCc1ccccc12 ?
A. 31

Q. I would be grateful if you could share the reported viability at 48 h, 100 µM for O=c1oc(-c2ccccc2)nn1CCCCN1CCC2(CC1)OCc1ccccc12 .
A. 5

Q. What value of viability at 48 h, 100 µM has been recorded for this entry: COc1cc2c(cc1OC)CN(CCCCN1C(=O)CCc3ccccc31)CC2
A. 42

Q. What measured viability at 48 h, 100 µM goes with O=c1oc(-c2ccccc2)nn1CCCCN1CCN(C2CCCCC2)CC1 ?
A. 57

Q. Need viability at 48 h, 100 µM, item O=C1CCc2ccccc2N1CCCCN1CCN(C2CCCCC2)CC1
A. 94

Q. # query: viability at 48 h, 100 µM of entry Cc1ccc(CN(C)CCCCn2nc(-c3ccccc3)oc2=O)c(C)c1
A. 22

Q. I'd like to know its viability at 48 h, 100 µM. The molecule in question is Cc1ccc(CN(C)CCCCN2C(=O)CCc3ccccc32)c(C)c1
A. 47

Q. Please look up its viability at 48 h, 100 µM: O=C1CCc2ccccc2N1CCCCN1CCN(c2ccc(F)cc2)CC1
A. 70

====

Experiment: Cytotoxicity against human Hep3B cells assessed as cell viability at 50 uM incubated for 48 hrs by MTT assay relative to control
Type: cell-based, Hep 3B2
Settings: read-out: Activity
Documented viability at 48 h, 50 µM across a set of compounds
The answer is to be given in %; state only the numeric part.

Check out these entries, answers already filled in.
- Molecular string: "O=c1oc(-c2ccccc2)nn1CCCCN1CCC2(CC1)OCc1ccccc12"
  Observation type: "viability at 48 h, 50 µM"
  Unit spec: "%"
  Endpoint value: 42
- Molecular string: "COc1cc2c(cc1OC)CN(CCCCn1nc(-c3ccccc3)oc1=O)CC2"
  Observation type: "viability at 48 h, 50 µM"
  Unit spec: "%"
  Endpoint value: 58
- Molecular string: "O=C1CCc2ccccc2N1CCCCN1CCC2(CC1)OCc1ccccc12"
  Observation type: "viability at 48 h, 50 µM"
  Unit spec: "%"
  Endpoint value: 38
- Molecular string: "O=C1CCc2ccccc2N1CCCCN1CCN(c2ccc(F)cc2)CC1"
  Observation type: "viability at 48 h, 50 µM"
  Unit spec: "%"
  Endpoint value: 54
- Molecular string: "O=c1oc(-c2ccccc2)nn1CCCCN1CCN(C2CCCCC2)CC1"
  Observation type: "viability at 48 h, 50 µM"
  Unit spec: "%"
  Endpoint value: 72
- Molecular string: "O=C1CCc2ccccc2N1CCCCN1CCN(C2CCCCC2)CC1"
  Observation type: "viability at 48 h, 50 µM"
  Unit spec: "%"
  Endpoint value: 48
- Molecular string: "Cc1ccc(CN(C)CCCCN2C(=O)CCc3ccccc32)c(C)c1"
  Observation type: "viability at 48 h, 50 µM"
  Unit spec: "%"
  Endpoint value: 52
- Molecular string: "COc1cc2c(cc1OC)CN(CCCCN1C(=O)CCc3ccccc31)CC2"
  Observation type: "viability at 48 h, 50 µM"
  Unit spec: "%"
  Endpoint value: 62

Q. What value of viability at 48 h, 50 µM has been reported for the following compound? Cc1ccc(CN(C)CCCCn2nc(-c3ccccc3)oc2=O)c(C)c1
A. 70

====

Assay: Cytotoxicity against human Hep3B cells assessed as cell viability at 100 uM incubated for 48 hrs by MTT assay relative to control
Format: cell-based, Hep 3B2
Conditions: read-out: Activity
Response field label: string, one of Y (viability at 48 h, 100 µM strictly below 20%) or N.

Some solved cases for reference:
- Molecular string: "Cc1ccc(CN(C)CCCCn2nc(-c3ccccc3)oc2=O)c(C)c1"
  Classification: "N"
- Molecular string: "COc1cc2c(cc1OC)CN(CCCCn1nc(-c3ccccc3)oc1=O)CC2"
  Classification: "N"
- Molecular string: "O=c1oc(-c2ccccc2)nn1CCCCN1CCC2(CC1)OCc1ccccc12"
  Classification: "Y"
- Molecular string: "O=C1CCc2ccccc2N1CCCCN1CCN(c2ccc(F)cc2)CC1"
  Classification: "N"
- Molecular string: "O=C1CCc2ccccc2N1CCCCN1CCC2(CC1)OCc1ccccc12"
  Classification: "Y"

Q. Would you kindly verify if viability at 48 h, 100 µM of O=C1CCc2ccccc2N1CCCCN1CCN(C2CCCCC2)CC1 is strictly less than 20%?
A. N

Q. Answer whether the molecule COc1cc2c(cc1OC)CN(CCCCN1C(=O)CCc3ccccc31)CC2 has viability at 48 h, 100 µM strictly less than 20%
A. N

Q. Below 20% on viability at 48 h, 100 µM? Entry O=c1oc(-c2ccccc2)nn1CCCCN1CCN(C2CCCCC2)CC1
A. N

Q. # check: viability at 48 h, 100 µM < 20% for Cc1ccc(CN(C)CCCCN2C(=O)CCc3ccccc32)c(C)c1
A. N

====

Experiment: Selectivity ratio of Ki for sigma1 receptor in guinea pig brain membranes to Ki for sigma2 receptor in rat liver membranes
Assay type: cell membranes
# binarize Ratio Ki: threshold 2 inclusive, high side Yes, low side No

Q. For this molecule, is measured Ratio Ki 2 or higher? Cc1ccc(CN(C)CCCCN2C(=O)CCc3ccccc32)c(C)c1
A. No

Q. State whether the measured Ratio Ki reaches 2, counting equality as reaching it, for O=c1oc(-c2ccccc2)nn1CCCCN1CCN(c2ccccn2)CC1
A. No

Q. Test whether the molecule O=C1CCc2ccccc2N1CCCCN1CCN(c2ccccn2)CC1 records Ratio Ki of 2 or higher.
A. No

Q. Threshold query (Ratio Ki >= 2) on O=c1oc(-c2ccccc2)nn1CCCCN1CCN(C2CCCCC2)CC1
A. No

Q. Could you please find out whether O=C1CCc2ccccc2N1CCCCN1CCC2(CC1)OCc1ccccc12 has Ratio Ki that meets 2 or exceeds it?
A. No

Q. Is Ratio Ki at least 2? Consider O=C1CCc2ccccc2N1CCCCN1CCc2ccc([N+](=O)[O-])cc2C1
A. Yes

Q. Tell me whether Ratio Ki is at least 2 here: O=c1oc(-c2ccccc2)nn1CCCCN1CCc2ccc([N+](=O)[O-])cc2C1
A. Yes

Q. Does the reported Ratio Ki for Cc1ccc(CN(C)CCCCn2nc(-c3ccccc3)oc2=O)c(C)c1 fall at or above the 2 mark?
A. No

Q. Decide: Ratio Ki of COc1cc2c(cc1OC)CN(CCCCn1nc(-c3ccccc3)oc1=O)CC2 >= 2?
A. No

Q. Quick check, Ratio Ki >= 2? COc1cc2c(cc1OC)CN(CCCCN1C(=O)CCc3ccccc31)CC2
A. Yes

====

Molecular target: Sigma intracellular receptor 2 (Rattus norvegicus, UniProt Q5U3Y7)
Sequence (Q5U3Y7 whole entry): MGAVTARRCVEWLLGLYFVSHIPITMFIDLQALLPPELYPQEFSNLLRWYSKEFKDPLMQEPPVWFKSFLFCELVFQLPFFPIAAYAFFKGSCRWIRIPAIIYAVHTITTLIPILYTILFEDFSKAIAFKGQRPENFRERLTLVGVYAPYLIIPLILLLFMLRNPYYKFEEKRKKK
Assay: Displacement of [3H]-di-o-tolylguanidine from sigma2 receptor in rat liver membranes in the presence of sigma1 receptor ligand (+)-pentazocine incubated for 120 mins by scintillation counting method
Overview of recorded Ki for various molecules
Give just the numeric value; nM need not be written.

- Molecular string: "O=C1CCc2ccccc2N1CCCCN1CCN(c2ccccn2)CC1"
  Tested target: "Sigma intracellular receptor 2 (Rattus norvegicus, UniProt Q5U3Y7)"
  Unit spec: "nM"
  Ki: 73
- Molecular string: "O=c1oc(-c2ccccc2)nn1CCCCN1CCN(C2CCCCC2)CC1"
  Tested target: "Sigma intracellular receptor 2 (Rattus norvegicus, UniProt Q5U3Y7)"
  Unit spec: "nM"
  Ki: 93

Now, please, on to the next molecule.
Q. Form field - read-out: Ki; system: Sigma intracellular receptor 2 (Rattus norvegicus, UniProt Q5U3Y7); submitted item: O=c1oc(-c2ccccc2)nn1CCCCN1CCN(c2ccccn2)CC1
A. 2800
